System: C. glutamicum (Cg, ATCC 13032)
Assay: microbe, parasite or virus in culture
Format: cell-based, Corynebacterium glutamicum
Conditions: ATCC 13032, 24 h
Procedure: All cyclic and linear peptides were screened for antibacterial activity against four Gram-positive strains: B. subtilis (Bs, ATCC 23857), C. glutamicum (Cg, ATCC 13032), S. aureus (Sa, ATCC 9144) and S. epidermidis RP62A (Se, ATCC 35984), and two Gram-negative strains: E. coli (Ec, ATCC 25922) and P. aeruginosa (Pa, ATCC 27853). The activity was assessed using a broth microdilution assay according to a modified CLSI-based method. […]
Where a SMILES comes first, the peptide text is derived from it. Bridges are numbered along the chain shown (N, C = ends). The star is where a group is joined. Lauroyl = CCCCCCCCCCCC(=O)*
measurement-name: Antimicrobial Activity (MIC) Gram + Cg (µg/mL)
Numbers only, in µg/mL.

Give its Antimicrobial Activity (MIC) Gram + Cg value. Item: CCCCCCCCCCCC(=O)N[C@H]1CSSC[C@@H](C(=O)N[C@@H](CCCNC(=N)N)C(=O)N[C@@H](CC(C)C)C(N)=O)NC(=O)[C@H](CCCNC(=N)N)NC(=O)[C@H](Cc2c[nH]c3ccccc23)NC(=O)[C@H](Cc2c[nH]c3ccccc23)NC(=O)CNC(=O)[C@H](Cc2c[nH]c3ccccc23)NC(=O)[C@H](CCCNC(=N)N)NC(=O)[C@H](CCCNC(=N)N)NC(=O)CNC1=O [Peptide C12-cTurg-6, C12- (CGRRWGWWRC)RL-NH2] (Lauroyl-CGRRWGWWRCRL-NH2; disulfide 1-10)
8

---

Test system: E. coli (Ec, ATCC 25922)
Assay: microbe, parasite or virus in culture
Format: cell-based, Escherichia coli
Conditions: ATCC 25922, 24 h
Where a SMILES comes first, the peptide text is derived from it. Bridges are numbered along the chain shown (N, C = ends). The star is where a group is joined. Lauroyl = CCCCCCCCCCCC(=O)*; Decanoyl = CCCCCCCCCC(=O)*; Octanoyl = CCCCCCCC(=O)*
Please go through the items and note down their Antimicrobial Activity (MIC) Gram − Ec.
Give bare numbers, in µg/mL.

Known results for molecules:
CC(C)C[C@H](NC(=O)[C@H](CCCNC(=N)N)NC(=O)[C@@H]1CSSC[C@H](N)C(=O)NCC(=O)N[C@@H](CCCNC(=N)N)C(=O)N[C@@H](CCCNC(=N)N)C(=O)N2CCC[C@H]2C(=O)N[C@@H](Cc2c[nH]c3ccccc23)C(=O)N[C@@H](Cc2c[nH]c3ccccc23)C(=O)N[C@@H](Cc2c[nH]c3ccccc23)C(=O)N[C@@H](CCCNC(=N)N)C(=O)N1)C(N)=O [cTurg-7] (H-CGRRPWWWRCRL-NH2; disulfide 1-10; N-terminus assumed) = 16
CCCCCCCC(=O)N[C@@H](CS)C(=O)NCC(=O)N[C@@H](CCCNC(=N)N)C(=O)N[C@@H](CCCNC(=N)N)C(=O)N[C@@H](Cc1c[nH]c2ccccc12)C(=O)NCC(=O)N[C@@H](Cc1c[nH]c2ccccc12)C(=O)N[C@@H](Cc1c[nH]c2ccccc12)C(=O)N[C@@H](CCCNC(=N)N)C(=O)N[C@@H](CS)C(=O)N[C@@H](CCCNC(=N)N)C(=O)N[C@@H](CC(C)C)C(N)=O [Peptide C8-Turg-6, C8- CGRRWGWWRC RL-NH2] (Octanoyl-CGRRWGWWRCRL-NH2) = 8
CCCCCCCCCC(=O)N[C@@H](CS)C(=O)NCC(=O)N[C@@H](CCCCN)C(=O)N[C@@H](CCCCN)C(=O)N[C@@H](Cc1c[nH]c2ccccc12)C(=O)N[C@@H](Cc1c[nH]c2ccccc12)C(=O)NCC(=O)N[C@@H](Cc1c[nH]c2ccccc12)C(=O)N[C@@H](CCCCN)C(=O)N[C@@H](CS)C(=O)N[C@@H](CCCCN)C(=O)N[C@@H](CC(C)C)C(N)=O [Peptide C10-Turg-2, C10- CGKKWWGWKC KL-NH2] (Decanoyl-CGKKWWGWKCKL-NH2) = 8
CCCCCCCCCC(=O)N[C@H]1CSSC[C@@H](C(=O)N[C@@H](CCCNC(=N)N)C(=O)N[C@@H](CC(C)C)C(N)=O)NC(=O)[C@H](CCCNC(=N)N)NC(=O)[C@H](Cc2c[nH]c3ccccc23)NC(=O)[C@H](Cc2c[nH]c3ccccc23)NC(=O)CNC(=O)[C@H](Cc2c[nH]c3ccccc23)NC(=O)[C@H](CCCNC(=N)N)NC(=O)[C@H](CCCNC(=N)N)NC(=O)CNC1=O [Peptide C10-cTurg-6, C10- (CGRRWGWWRC)RL-NH2] (Decanoyl-CGRRWGWWRCRL-NH2; disulfide 1-10) = 16
CCCCCCCCCCCC(=O)N[C@H]1CSSC[C@@H](C(=O)N[C@@H](CCCNC(=N)N)C(=O)N[C@@H](CC(C)C)C(N)=O)NC(=O)[C@H](CCCNC(=N)N)NC(=O)[C@H](Cc2c[nH]c3ccccc23)NC(=O)[C@H](Cc2c[nH]c3ccccc23)NC(=O)CNC(=O)[C@H](Cc2c[nH]c3ccccc23)NC(=O)[C@H](CCCNC(=N)N)NC(=O)[C@H](CCCNC(=N)N)NC(=O)CNC1=O [Peptide C12-cTurg-6, C12- (CGRRWGWWRC)RL-NH2] (Lauroyl-CGRRWGWWRCRL-NH2; disulfide 1-10) = 32

Hi team, please reply with Antimicrobial Activity (MIC) Gram − Ec for each item in this list.
1. CC(C)C[C@H](NC(=O)[C@H](CCCCN)NC(=O)[C@@H]1CSSC[C@H](N)C(=O)NCC(=O)N[C@@H](CCCCN)C(=O)N[C@@H](CCCCN)C(=O)N[C@@H](Cc2c[nH]c3ccccc23)C(=O)NCC(=O)N[C@@H](Cc2c[nH]c3ccccc23)C(=O)N[C@@H](Cc2c[nH]c3ccccc23)C(=O)N[C@@H](CCCCN)C(=O)N1)C(N)=O [cTurg-3] (H-CGKKWGWWKCKL-NH2; disulfide 1-10; N-terminus assumed)
2. CCCCCCCC(=O)N[C@H]1CSSC[C@@H](C(=O)N[C@@H](CCCCN)C(=O)N[C@@H](CC(C)C)C(N)=O)NC(=O)[C@H](CCCCN)NC(=O)[C@H](Cc2c[nH]c3ccccc23)NC(=O)CNC(=O)CNC(=O)[C@@H]2CCCN2C(=O)[C@H](CCCCN)NC(=O)[C@H](CCCCN)NC(=O)CNC1=O [Peptide C8-cTurg-1, C8 -(CGKKPGGWKC)KL-NH2] (Octanoyl-CGKKPGGWKCKL-NH2; disulfide 1-10)
3. CCCCCCCCCC(=O)N[C@H]1CSSC[C@@H](C(=O)N[C@@H](CCCCN)C(=O)N[C@@H](CC(C)C)C(N)=O)NC(=O)[C@H](CCCCN)NC(=O)[C@H](Cc2c[nH]c3ccccc23)NC(=O)CNC(=O)[C@H](Cc2c[nH]c3ccccc23)NC(=O)[C@H](Cc2c[nH]c3ccccc23)NC(=O)[C@H](CCCCN)NC(=O)[C@H](CCCCN)NC(=O)CNC1=O [Peptide C10-cTurg-2, C10- (CGKKWWGWKC)KL-NH2] (Decanoyl-CGKKWWGWKCKL-NH2; disulfide 1-10)
4. CCCCCCCCCCCC(=O)N[C@@H](CS)C(=O)NCC(=O)N[C@@H](CCCCN)C(=O)N[C@@H](CCCCN)C(=O)N[C@@H](Cc1c[nH]c2ccccc12)C(=O)N[C@@H](Cc1c[nH]c2ccccc12)C(=O)NCC(=O)N[C@@H](Cc1c[nH]c2ccccc12)C(=O)N[C@@H](CCCCN)C(=O)N[C@@H](CS)C(=O)N[C@@H](CCCCN)C(=O)N[C@@H](CC(C)C)C(N)=O [Peptide C12-Turg-2, C12- CGKKWWGWKC KL-NH2] (Lauroyl-CGKKWWGWKCKL-NH2)

1. 32
2. 32
3. 8
4. 16

---

Test system: S. epidermidis RP62A (Se, ATCC 35984)
Assay: microbe, parasite or virus in culture
Format: cell-based, Staphylococcus epidermidis
Details: ATCC 35984, 24 h
Where a SMILES comes first, the peptide text is derived from it. The star is where a group is joined. Decanoyl = CCCCCCCCCC(=O)*
measurement-name: Antimicrobial Activity (MIC) Gram + Se (µg/mL)
Numbers only, in µg/mL.

Would you kindly share the measured Antimicrobial Activity (MIC) Gram + Se for CCCCCCCCCC(=O)N[C@@H](CS)C(=O)NCC(=O)N[C@@H](CCCNC(=N)N)C(=O)N[C@@H](CCCNC(=N)N)C(=O)N[C@@H](Cc1c[nH]c2ccccc12)C(=O)NCC(=O)N[C@@H](Cc1c[nH]c2ccccc12)C(=O)N[C@@H](Cc1c[nH]c2ccccc12)C(=O)N[C@@H](CCCNC(=N)N)C(=O)N[C@@H](CS)C(=O)N[C@@H](CCCNC(=N)N)C(=O)N[C@@H](CC(C)C)C(N)=O [Peptide C10-Turg-6, C10- CGRRWGWWRC RL-NH2] (Decanoyl-CGRRWGWWRCRL-NH2) ?
16
